Target sequence: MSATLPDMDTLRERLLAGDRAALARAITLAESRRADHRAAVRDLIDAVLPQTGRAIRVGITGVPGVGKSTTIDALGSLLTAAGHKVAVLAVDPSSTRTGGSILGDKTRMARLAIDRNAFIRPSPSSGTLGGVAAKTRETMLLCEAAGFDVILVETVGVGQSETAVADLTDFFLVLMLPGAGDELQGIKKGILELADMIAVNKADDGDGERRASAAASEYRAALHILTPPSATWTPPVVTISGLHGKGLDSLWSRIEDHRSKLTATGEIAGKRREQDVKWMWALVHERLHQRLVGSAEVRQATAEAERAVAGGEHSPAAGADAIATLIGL
measured endpoint: Kd (nM)

1. Nc1nc2c(ncn2[C@@H]2O[C@H](COP(=O)(O)OP(=O)(O)O)[C@@H](O)[C@H]2O)c(=O)[nH]1 | 1400
2. Nc1nc2c(ncn2[C@@H]2O[C@H](COP(=O)(O)OP(=O)(O)NP(=O)(O)O)[C@@H](O)[C@H]2O)c(=O)[nH]1 | 900
